TESTED_ON: T1, huBCMA Fc(kih) (Homo sapiens, UniProt Q02223)
T1 construct: The extracellular domains of human and cynomolgus BCMA comprised methionine 4 to asparagine 53, and methionine 4 to asparagine 52, respectively; made in house; host or cells: HEK EBNA cells
T1 sequence (Q02223 4-53): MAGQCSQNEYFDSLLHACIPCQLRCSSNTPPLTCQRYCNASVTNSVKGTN
ASSAY_METHOD_TEXT: Biacore T200 SPR, anti-BCMA antibodies to recombinant human BCMA Fc(kih)
Type: binding
MEASUREMENT_SETUP: analyte huBCMA Fc(kih), 1:1 Langmuir, 25° C.
VALUE_TYPE: Kon (M⁻¹ s⁻¹)
One number for each entry, in M⁻¹ s⁻¹.

INSERT INTO assay_data (molecule, val) VALUES
  ('Mab 27: anti-BCMA antibody, VH SEQ ID NO:38, VL SEQ ID NO:12 (antibody, V domains shown, Mab27 VH; Variable region VL) VH: EVQLLESGGGLVQPGGSLRLSCAASGFTFSSAPMGWVRQAPGKGLEWVSAISYIGHTYYADSVKGRFTISRDNSKNTLYLQMNSLRAEDTAVYYCAKVLGWFDYWGQGTLVTVSS VL: EIVLTQSPGTLSLSPGERATLSCRASQSVSEYYLAWYQQKPGQAPRLLIEHASTRATGIPDRFSGSGSGTDFTLTISRLEPEDFAVYYCQQYGYPPDFTFGQGTKVEIK', 359000);

Could you report Kon for every entry in the following list?
1. Mab 33: anti-BCMA antibody, VH SEQ ID NO:39, VL SEQ ID NO:12 (antibody, V domains shown, Mab33 VH; Variable region VL) VH: EVQLLESGGGLVQPGGSLRLSCAASGFTFYTNAMGWVRQAPGKGLEWVSAINRFGGSTYYADSVKGRFTISRDNSKNTLYLQMNSLRAEDTAVYYCAKVLGWFDYWGQGTLVTVSS VL: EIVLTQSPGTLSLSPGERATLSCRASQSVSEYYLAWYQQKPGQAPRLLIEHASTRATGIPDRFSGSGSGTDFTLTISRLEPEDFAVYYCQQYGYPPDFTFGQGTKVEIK
2. Mab 42: anti-BCMA antibody, VH SEQ ID NO:10, VL SEQ ID NO:14 (antibody, V domains shown, Variable region VH; Variable region VL Mab42) VH: EVQLLESGGGLVQPGGSLRLSCAASGFTFSDNAMGWVRQAPGKGLEWVSAISGPGSSTYYADSVKGRFTISRDNSKNTLYLQMNSLRAEDTAVYYCAKVLGWFDYWGQGTLVTVSS VL: EIVLTQSPGTLSLSPGERATLSCRASQSVSDEYLSWYQQKPGQAPRLLIHSASTRATGIPDRFSGSGSGTDFTLAISRLEPEDFAVYYCQQYGYPPDFTFGQGTKVEIK
3. Mab 39: anti-BCMA antibody, VH SEQ ID NO:40, VL SEQ ID NO:12 (antibody, V domains shown, Mab39 VH; Variable region VL) VH: EVQLLESGGGLVQPGGSLRLSCAASGFTFTQNAMGWVRQAPGKGLEWVSAISPTGFSTYYADSVKGRFTISRDNSKNTLYLQMNSLRAEDTAVYYCAKVLGWFDYWGQGTLVTVSS VL: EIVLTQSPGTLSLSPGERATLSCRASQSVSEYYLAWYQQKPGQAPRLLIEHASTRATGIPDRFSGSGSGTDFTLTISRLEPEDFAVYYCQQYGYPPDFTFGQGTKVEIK
4. Mab 21: anti-BCMA antibody, VH SEQ ID NO:10, VL SEQ ID NO:12 (antibody, V domains shown, Variable region VH; Variable region VL) VH: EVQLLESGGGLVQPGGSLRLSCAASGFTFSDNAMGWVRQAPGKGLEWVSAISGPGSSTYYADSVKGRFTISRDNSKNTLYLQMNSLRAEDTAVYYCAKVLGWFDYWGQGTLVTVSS VL: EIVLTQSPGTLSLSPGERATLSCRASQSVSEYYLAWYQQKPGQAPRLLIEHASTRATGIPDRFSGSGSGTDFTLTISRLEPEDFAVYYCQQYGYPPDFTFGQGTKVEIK
5. Mab 22: anti-BCMA antibody, VH SEQ ID NO:10, VL SEQ ID NO:13 (antibody, V domains shown, Variable region VH; Variable region VL Mab22) VH: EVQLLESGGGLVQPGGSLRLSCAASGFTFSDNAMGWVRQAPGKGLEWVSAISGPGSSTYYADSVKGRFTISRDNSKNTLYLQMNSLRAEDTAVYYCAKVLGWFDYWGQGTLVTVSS VL: EIVLTQSPGTLSLSPGERATLSCRASQSVSSYYLAWYQQKPGQAPRLLISGAGSRATGIPDRFSGSGSGTDFTLTISRLEPEDFAVYYCQQYGYPPDFTFGQGTKVEIK

1. 200000
2. 803000
3. 361000
4. 851000
5. 814000

The origin of these recorded values is patent US20220002427A1.
